system: Malme-3M; assay: NCI tumour cell line growth inhibition, 48 h
Calls of active or inactive are those of the source. Rule as the data show it: active = GI50 up to about 1.1 µM and inactive = higher.
measured.attribute: GI50

## Input Requested read-out: GI50. Entry: Cc1ccc(S(=O)(=O)OCCN(CCOS(=O)(=O)c2ccc(C)cc2)c2ccc(C=O)cc2)cc1
## Output 25.4 µM (inactive)

## Input Requested read-out: GI50. Entry: C/C=C\C(CC(=O)NCC(=O)c1c[nH]c2ccccc12)CC(=O)OC (stereo unspecified)
## Output > 100 µM (inactive)

## Input Requested read-out: GI50. Entry: COc1cc(C(c2c(O)c3ccccc3oc2=O)c2c(O)c3ccccc3oc2=O)cc(Br)c1O
## Output 16.8 µM (inactive)

## Input Requested read-out: GI50. Entry: N#Cc1c(NC(=S)Nc2ccccc2)sc2c1CCCC2
## Output > 100 µM (inactive)

## Input Requested read-out: GI50. Entry: CCCCCCC(=O)OC[n+]1cccc(-c2c(COC(=O)NC(C)C)c(COC(=O)NC(C)C)c3n2CCC3)c1
## Output 38.9 µM (inactive)

## Input Requested read-out: GI50. Entry: COC1=CCC2=C(CCN(C(=O)C3CC3)C2Cc2ccc(OC)c(O)c2)C1 (stereo unspecified)
## Output 88.9 µM (inactive)

## Input Requested read-out: GI50. Entry: CC(=O)c1c(-c2ccc(Cl)cc2)c(C#N)c(=S)n(C2OC(CO)C(O)C(O)C2O)c1C (stereo unspecified)
## Output 67 µM (inactive)

## Input Requested read-out: GI50. Entry: CCOC(=O)/C(Cl)=C(\C)Nc1nc2c(ccc3ccccc32)s1
## Output 15.6 µM (inactive)

## Input Requested read-out: GI50. Entry: O=c1c2cccnc2ncn1CCCN1CCOCC1
## Output > 100 µM (inactive)

## Input Requested read-out: GI50. Entry: N#CC(C(=O)C(=O)C(C#N)c1ccc(Br)cc1)c1ccc(Br)cc1 (stereo unspecified)
## Output 13.6 µM (inactive)

## Input Requested read-out: GI50. Entry: COC(=O)Cc1c(/C=C/C(C)(C)n2cnc(CCN3C(=O)CCC3=O)c2)[nH]c2ccccc12
## Output 37 µM (inactive)

###

tested on: A498; assay: NCI tumour cell line growth inhibition, 48 h
Active and inactive are the calls of the source. No stated cut-off is given here; in the data, active = GI50 up to about 1.1 µM and inactive = higher.
measured.attribute: GI50

molecule	reported.value
N#Cc1c(-c2ccccc2)cc(Nc2ccc(Cl)cc2)n2c1nc1ccccc12	3.71 µM (inactive)
C=C(C(=C)P(=S)(C(C)C)C(C)C)P(=S)(C(C)C)C(C)C	> 100 µM (inactive)
CN(C(=O)Cc1cccc(N=C=S)c1)[C@H]1CCCC[C@@H]1N1CCCC1	17.2 µM (inactive)

## Input Requested read-out: GI50. Entry: Cc1cc(OCc2nnc3n2S(=O)(=O)c2ccccc2N3C)ccc1Cl
## Output 24.6 µM (inactive)

## Input Requested read-out: GI50. Entry: O=C1CCCCC/C1=C\c1ccc([N+](=O)[O-])cc1
## Output 35.2 µM (inactive)

## Input Requested read-out: GI50. Entry: N=C(N)SCCSC(=N)N
## Output > 100 µM (inactive)

## Input Requested read-out: GI50. Entry: C=C=C(Sc1ccccc1)C(C)(C)O
## Output > 100 µM (inactive)

## Input Requested read-out: GI50. Entry: CCc1ccc2nccc(NCCCN(C)C)c2c1[N+](=O)[O-]
## Output > 100 µM (inactive)

## Input Requested read-out: GI50. Entry: O=c1ccc2ccc(CBr)cc2o1
## Output 16 µM (inactive)

## Input Requested read-out: GI50. Entry: NC1=CC(C(=O)c2ccncc2)c2nc3ccccc3nc21 (stereo not given)
## Output > 100 µM (inactive)

## Input Requested read-out: GI50. Entry: CCOC(=O)Cc1csc(Nc2ccccc2[N+](=O)[O-])n1
## Output > 100 µM (inactive)

## Input Requested read-out: GI50. Entry: CCCCN1C(=O)N(c2ccc(OCC)cc2)C2N(CCCC)C1C(C)(C)C2(C)C (stereo not given)
## Output 35.2 µM (inactive)

## Input Requested read-out: GI50. Entry: CC(C)(CO)CNc1cc(Cl)nc(N)n1
## Output > 100 µM (inactive)

## Input Requested read-out: GI50. Entry: CC(C)c1ccccc1NC(=O)CCc1n[nH]c(=S)o1
## Output > 100 µM (inactive)

## Input Requested read-out: GI50. Entry: C/C(=N\NC(=S)NCCNC(=S)N/N=C(\C)c1ccccn1)c1ccccn1
## Output 4.44 µM (inactive)

The values you see were collected from ChEMBL document CHEMBL1201862.
